Tested on: OVCAR-4 ovarian
Assay: NCI tumour cell line growth inhibition, 48 h
EXPERIMENTAL ENDPOINT: TGI (µM)
Report the value in µM with no unit label.

Below, 2 molecules whose answers are already recorded.
Entry CCCN1C(=O)NC(=O)C(CC)(N2C(=O)c3c(F)c(F)c(F)c(F)c3C2=O)C1=O (stereo unspecified) ; TGI = 4.83

Entry c1ccc(/C(=N/Nc2nc3ccccc3s2)C2CCCCC2)nc1 ; TGI = 22.3

New cases:
Entry COc1cccc(N2C(=O)CSC2c2cccc(Oc3ccccc3)c2)c1 (stereo unspecified) ; TGI = 87.5

###

Test system: SK-MEL-5 melanoma
Assay: NCI tumour cell line growth inhibition, 48 h
EXPERIMENTAL ENDPOINT: TGI

Below, 3 compounds whose answers are already recorded.
Entry O=C(O)c1nc(NCc2nc3cc(Cl)ccc3o2)n[nH]1 ; TGI = > 100 µM

Entry C=CCc1c(Cl)nc(Cl)nc1Cl ; TGI = 0.301 µM

Entry COc1cc(/C=C2\C(=O)N(c3cccc([N+](=O)[O-])c3)C(c3ccccc3)S2(=O)=O)cc(OC)c1OC (stereo unspecified) ; TGI = > 100 µM

New cases:
Entry CCOC(=O)C(C#N)(Cc1c[nH]c2ccccc12)NC(C)=O (stereo unspecified) ; TGI = > 100 µM

Entry C[C@@]1(O)C2CC3CC1(c1ccccc1)CC(/C3=N/O)/C2=N\O (stereo partly specified) ; TGI = > 100 µM

Entry CCNCCNC(=O)c1ccc(I)cc1 ; TGI = > 100 µM

The measured values listed here are drawn from PubChem BioAssay (NCI).
